# maps each entry to its composite z-score
# System: Neurogenic locus notch homolog protein 3 (Homo sapiens) (UniProt Q9UM47)
# Sequence (Q9UM47 whole entry, looked up): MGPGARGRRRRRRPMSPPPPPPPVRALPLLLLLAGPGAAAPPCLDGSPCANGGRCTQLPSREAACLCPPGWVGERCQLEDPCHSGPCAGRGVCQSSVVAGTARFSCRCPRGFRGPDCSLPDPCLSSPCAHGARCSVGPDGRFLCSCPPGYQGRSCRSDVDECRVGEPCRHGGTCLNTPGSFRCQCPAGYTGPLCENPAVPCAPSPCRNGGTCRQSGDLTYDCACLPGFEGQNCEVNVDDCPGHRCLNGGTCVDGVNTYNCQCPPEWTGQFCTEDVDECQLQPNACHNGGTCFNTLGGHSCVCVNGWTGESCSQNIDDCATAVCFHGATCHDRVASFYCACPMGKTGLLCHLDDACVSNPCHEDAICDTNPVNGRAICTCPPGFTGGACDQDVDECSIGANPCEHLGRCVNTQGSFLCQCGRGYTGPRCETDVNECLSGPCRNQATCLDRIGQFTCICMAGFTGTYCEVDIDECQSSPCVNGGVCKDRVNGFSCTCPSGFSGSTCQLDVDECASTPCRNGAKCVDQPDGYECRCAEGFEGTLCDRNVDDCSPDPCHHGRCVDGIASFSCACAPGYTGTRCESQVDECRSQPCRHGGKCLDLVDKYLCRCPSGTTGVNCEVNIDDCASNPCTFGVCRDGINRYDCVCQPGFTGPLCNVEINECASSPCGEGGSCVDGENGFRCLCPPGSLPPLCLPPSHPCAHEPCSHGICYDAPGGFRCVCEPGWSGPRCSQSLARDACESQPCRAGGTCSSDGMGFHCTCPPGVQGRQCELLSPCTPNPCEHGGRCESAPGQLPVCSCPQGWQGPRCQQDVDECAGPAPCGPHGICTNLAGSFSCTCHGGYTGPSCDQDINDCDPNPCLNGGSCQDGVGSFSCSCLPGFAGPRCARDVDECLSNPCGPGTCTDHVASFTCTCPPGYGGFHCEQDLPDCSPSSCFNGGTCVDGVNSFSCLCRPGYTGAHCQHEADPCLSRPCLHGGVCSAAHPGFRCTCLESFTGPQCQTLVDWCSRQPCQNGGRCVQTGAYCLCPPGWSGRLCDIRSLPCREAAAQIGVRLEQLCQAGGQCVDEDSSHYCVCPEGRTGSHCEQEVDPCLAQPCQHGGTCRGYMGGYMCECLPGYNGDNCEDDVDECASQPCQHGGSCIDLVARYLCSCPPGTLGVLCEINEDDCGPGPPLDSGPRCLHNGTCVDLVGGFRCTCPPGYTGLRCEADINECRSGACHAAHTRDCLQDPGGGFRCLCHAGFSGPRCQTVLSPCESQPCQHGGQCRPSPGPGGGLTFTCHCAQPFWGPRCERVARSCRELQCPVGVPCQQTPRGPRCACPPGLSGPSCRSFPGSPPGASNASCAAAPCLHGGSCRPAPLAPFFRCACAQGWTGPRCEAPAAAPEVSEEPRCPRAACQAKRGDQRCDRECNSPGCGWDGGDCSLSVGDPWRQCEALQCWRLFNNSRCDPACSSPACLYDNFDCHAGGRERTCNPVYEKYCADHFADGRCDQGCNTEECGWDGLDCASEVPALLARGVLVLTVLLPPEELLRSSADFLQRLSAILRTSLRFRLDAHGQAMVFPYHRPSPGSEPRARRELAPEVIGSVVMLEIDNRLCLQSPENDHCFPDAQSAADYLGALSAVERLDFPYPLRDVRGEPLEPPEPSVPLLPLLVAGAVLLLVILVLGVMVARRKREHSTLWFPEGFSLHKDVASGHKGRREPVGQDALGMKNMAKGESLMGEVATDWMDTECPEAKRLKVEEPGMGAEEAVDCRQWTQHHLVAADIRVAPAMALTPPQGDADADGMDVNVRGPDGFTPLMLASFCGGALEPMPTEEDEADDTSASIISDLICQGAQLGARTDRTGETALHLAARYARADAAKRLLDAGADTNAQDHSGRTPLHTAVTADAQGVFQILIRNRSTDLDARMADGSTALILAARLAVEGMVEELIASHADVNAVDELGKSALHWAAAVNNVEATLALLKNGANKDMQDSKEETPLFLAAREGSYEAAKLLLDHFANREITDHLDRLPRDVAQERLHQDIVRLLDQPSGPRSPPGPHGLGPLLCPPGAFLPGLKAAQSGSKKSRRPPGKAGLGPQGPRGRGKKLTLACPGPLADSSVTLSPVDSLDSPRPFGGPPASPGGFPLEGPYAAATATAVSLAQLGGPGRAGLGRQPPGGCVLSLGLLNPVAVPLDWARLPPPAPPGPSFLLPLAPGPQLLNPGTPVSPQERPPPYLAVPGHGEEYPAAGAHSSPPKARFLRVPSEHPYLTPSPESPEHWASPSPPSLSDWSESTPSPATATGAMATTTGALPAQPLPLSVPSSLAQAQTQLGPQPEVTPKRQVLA
# Test Details: small molecules binding NOTCH3 protein – biochemical, 635/667 nm fluorescence, primary screen (AID 1096)
# Cond: small-molecule microarray, 635 nm fluorescence, higher = more signal
Just the number, please, no unit attached.

COCCOC(=O)N1C(=O)[C@@]2(c3cc(C#CCCO)ccc31)[C@H](c1ccc(OCCO)cc1)N1[C@H](c3ccccc3)[C@H](c3ccccc3)OC(=O)[C@H]1[C@@H]2C(=O)N1CCCCCCC1 ... 1.04
CC(=O)OCC1C2CC[C@H]3C(OCc4ccc(F)cc4C(F)(F)F)OC[C@]4(C)[C@H]3C2=C(CN4C(=O)OC(C)(C)C)[C@H](C)C1COC(C)=O (stereo partly drawn) ... -0.439

// next item, composite z-score requested
Report composite z-score for CN1C(=O)C2C=CC(C(O)c3ccc(-c4ccccc4)s3)N(NC(=O)OC(C)(C)C)C2C1=O (stereo not drawn)
0.687
